# System: P. aeruginosa
# assay name: Checkerboard assay (antibiotic potentiation)
# Assay type: cell-based, Pseudomonas aeruginosa
# experimental context: P. aeruginosa PAO1; antibiotic MIC with 8 µg/mL (5 µM) compound 3
recorded metric: MICantibiotic + compound (µg/mL)
Write the answer as a number in µg/mL, unit excluded.

input: Give its MICantibiotic + compound value. Item: CO[C@H]1/C=C/O[C@@]2(C)Oc3c(C)c(O)c4c(O)c(c(/C=N/N5CCN(C)CC5)c(O)c4c3C2=O)NC(=O)/C(C)=C\C=C\[C@H](C)[C@H](O)[C@@H](C)[C@@H](O)[C@@H](C)[C@H](OC(C)=O)[C@@H]1C
output: 32

input: Entry C[C@@H]1CN2c3c(cc4c(N5C(=O)OC[C@@H]5C)noc4c3F)CC3(C(=O)NC(=O)NC3=O)[C@H]2[C@H](C)O1 has what MICantibiotic + compound?
output: 128

input: Reported MICantibiotic + compound for CN(C)c1ccc(O)c2c1C[C@H]1C[C@H]3[C@H](N(C)C)C(O)=C(C(N)=O)C(=O)[C@@]3(O)C(O)=C1C2=O : what is it?
output: 64

input: Please give the measured MICantibiotic + compound for this compound: CC(C)(O/N=C(\C(=O)N[C@@H]1C(=O)N2C(C(=O)[O-])=C(C[n+]3ccccc3)CS[C@H]12)c1csc(N)n1)C(=O)O
output: 4

input: What does the record list as MICantibiotic + compound for C[C@H]1COc2c(N3CCN(C)CC3)c(F)cc3c(=O)c(C(=O)O)cn1c23 ?
output: 1

###

# Tested on: RPTEC/TERT1
# Assay type: cell-based, human
# experimental context: 48 h
Positions of bridges follow the written chain, without caps; N, C: chain ends. Non-standard residues stand in square brackets, D forms with d. Residues, ends and D or L forms follow the SMILES beside them. *: point of attachment. Agp = N=C(N)NC[C@H](N)C(=O)O; Octanoyl = CCCCCCCC(=O)*; Dab = NCC[C@H](N)C(=O)O; Dap = NC[C@H](N)C(=O)O
Would you kindly list CC50 in RPTEC/TERT1 for each of these molecules?

input: Can you share its CC50 in RPTEC/TERT1? I mean this molecule: CCCCCCCC(=O)N[C@@H](CNC(=N)N)C(=O)N[C@H](C(=O)N[C@@H](CNC(=N)N)C(=O)N[C@H]1CCNC(=O)[C@H]([C@@H](C)O)NC(=O)[C@H](CNC(=N)N)NC(=O)[C@H](CNC(=N)N)NC(=O)[C@H](CC(C)C)NC(=O)[C@@H](Cc2ccccc2)NC(=O)[C@H](CNC(=N)N)NC1=O)[C@@H](C)O [Compound 2] (Octanoyl-[Agp]T[Agp][Dab][Agp][dF]L[Agp][Agp]T; lactam 4-C)
output: 28 µM

input: Look up CC50 in RPTEC/TERT1: CCCCCCCC(=O)N[C@@H](CN)C(=O)N[C@H](C(=O)N[C@@H](CC(=O)O)C(=O)N[C@H]1CCNC(=O)[C@H]([C@@H](C)O)NC(=O)[C@H](CN)NC(=O)[C@H](CN)NC(=O)[C@H](CC(C)C)NC(=O)[C@@H](Cc2ccccc2)NC(=O)[C@H](CN)NC1=O)[C@@H](C)O [Compound 3] (Octanoyl-[Dap]TD[Dab][Dap][dF]L[Dap][Dap]T; lactam 4-C)
output: 627.2 µM

input: Name the reported CC50 in RPTEC/TERT1 value associated with the molecule CCCCCCCC(=O)N[C@@H](CCN)C(=O)N[C@H](C(=O)N[C@@H](CCN)C(=O)N[C@H]1CCNC(=O)[C@H]([C@@H](C)O)NC(=O)[C@H](CCN)NC(=O)[C@H](CCN)NC(=O)[C@H]([C@@H](C)O)NC(=O)[C@@H]([C@H](C)O)NC(=O)[C@H](CCN)NC1=O)[C@@H](C)O [Compound F230] (Octanoyl-[Dab]T[Dab][Dab][Dab][dT]T[Dab][Dab]T; lactam 4-C)
output: 471.4 µM

input: Entry CCCCCCCC(=O)N[C@@H](CCN)C(=O)N[C@H](C(=O)N[C@@H](CC(=O)O)C(=O)N[C@H]1CCNC(=O)[C@H]([C@@H](C)O)NC(=O)[C@H](CCN)NC(=O)[C@H](CCN)NC(=O)[C@H](CC(C)C)NC(=O)[C@@H](Cc2ccccc2)NC(=O)[C@H](CCN)NC1=O)[C@@H](C)O [Compound 4] (Octanoyl-[Dab]TD[Dab][Dab][dF]L[Dab][Dab]T; lactam 4-C) has what CC50 in RPTEC/TERT1?
output: 238.8 µM
